Test system: T-47D spheroids with HUVEC/MSC, viability
experiment_notes: Anticancer human tumor T-47D cell line growth inhibition [PI3K];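 also: spheroids exposed to agents for seven days before reading; percent of DMSO vehicle control luminescence so 100% = untreated growth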
run_parameters: second compound 1 µM; first compound 0.316 µM; active compounds read low
reported_endpoint: viability, T/C

# input Give T-47D spheroids with HUVEC/MSC, viability viability, T/C for C#Cc1c(F)ccc2cc(O)cc(-c3ncc4c(N5CC6CCC(C5)N6)nc(OCC56CCCN5CC(F)C6)nc4c3F)c12 (stereo unspecified) + CC(Nc1ncnc2nc[nH]c12)c1cc2cccc(Cl)c2c(=O)n1-c1ccccc1
# output 97.5%

# input Give T-47D spheroids with HUVEC/MSC, viability viability, T/C for CCCS(=O)(=O)Nc1ccc(F)c(C(=O)c2c[nH]c3ncc(-c4ccc(Cl)cc4)cc23)c1F + COc1c(OCCCN2CCOCC2)ccc2c3n(c(=NC(=O)c4cnc(N)nc4)nc12)CCN3
# output 6.15%

# input Give T-47D spheroids with HUVEC/MSC, viability viability, T/C for CCN1CCN(Cc2ccc(Nc3ncc(F)c(-c4cc(F)c5nc(C)n(C(C)C)c5c4)n3)nc2)CC1 + CC(Nc1ccc2c(c1)OCCn1cc(N3C(=O)OCC3C(F)F)nc1-2)C(N)=O
# output 37.2%

# input Give T-47D spheroids with HUVEC/MSC, viability viability, T/C for CCN1CCN(Cc2ccc(Nc3ncc(F)c(-c4cc(F)c5nc(C)n(C(C)C)c5c4)n3)nc2)CC1 + COc1c(OCCCN2CCOCC2)ccc2c3n(c(=NC(=O)c4cnc(N)nc4)nc12)CCN3
# output 12.2%

# input Give T-47D spheroids with HUVEC/MSC, viability viability, T/C for CC1(C)CCC(CN2CCN(c3ccc(C(=O)NS(=O)(=O)c4ccc(NCC5CCOCC5)c([N+](=O)[O-])c4)c(Oc4cnc5[nH]ccc5c4)c3)CC2)=C(c2ccc(Cl)cc2)C1 + CC(Nc1ccc2c(c1)OCCn1cc(N3C(=O)OCC3C(F)F)nc1-2)C(N)=O
# output 61%

# input Give T-47D spheroids with HUVEC/MSC, viability viability, T/C for Cn1ncc(Cl)c1-c1cc(C(=O)NC(CN)Cc2cccc(F)c2)sc1Cl (stereo unspecified) + CC(Nc1ccc2c(c1)OCCn1cc(N3C(=O)OCC3C(F)F)nc1-2)C(N)=O
# output 49.8%

# input Give T-47D spheroids with HUVEC/MSC, viability viability, T/C for CNC(=O)c1ccc(N2C(=S)N(c3ccc(C#N)c(C(F)(F)F)c3)C(=O)C2(C)C)cc1F + CC(Nc1ccc2c(c1)OCCn1cc(N3C(=O)OCC3C(F)F)nc1-2)C(N)=O
# output 58.8%

# input Give T-47D spheroids with HUVEC/MSC, viability viability, T/C for C#Cc1c(F)ccc2cc(O)cc(-c3ncc4c(N5CC6CCC(C5)N6)nc(OCC56CCCN5CC(F)C6)nc4c3F)c12 (stereo unspecified) + COc1c(OCCCN2CCOCC2)ccc2c3n(c(=NC(=O)c4cnc(N)nc4)nc12)CCN3
# output 8.19%

# input Give T-47D spheroids with HUVEC/MSC, viability viability, T/C for CCCS(=O)(=O)Nc1ccc(F)c(C(=O)c2c[nH]c3ncc(-c4ccc(Cl)cc4)cc23)c1F + Cc1nc(NC(=O)N2CCCC2C(N)=O)sc1-c1ccnc(C(C)(C)C(F)(F)F)c1
# output 81.5%

# input Give T-47D spheroids with HUVEC/MSC, viability viability, T/C for CC(Cn1ccc(-c2ccc(C#N)c(Cl)c2)n1)NC(=O)c1cc(C(C)O)[nH]n1 (stereo unspecified) + COc1c(OCCCN2CCOCC2)ccc2c3n(c(=NC(=O)c4cnc(N)nc4)nc12)CCN3
# output 7.63%

# input Give T-47D spheroids with HUVEC/MSC, viability viability, T/C for CC1(C)CCC(CN2CCN(c3ccc(C(=O)NS(=O)(=O)c4ccc(NCC5CCOCC5)c([N+](=O)[O-])c4)c(Oc4cnc5[nH]ccc5c4)c3)CC2)=C(c2ccc(Cl)cc2)C1 + CC(Nc1ncnc2nc[nH]c12)c1cc2cccc(Cl)c2c(=O)n1-c1ccccc1
# output 91%

# input Give T-47D spheroids with HUVEC/MSC, viability viability, T/C for CCN1CCN(Cc2ccc(Nc3ncc(F)c(-c4cc(F)c5nc(C)n(C(C)C)c5c4)n3)nc2)CC1 + Cc1nc(NC(=O)N2CCCC2C(N)=O)sc1-c1ccnc(C(C)(C)C(F)(F)F)c1
# output 58.9%

# input Give T-47D spheroids with HUVEC/MSC, viability viability, T/C for Cn1nccc1Nc1nccc(-c2ccn(C(CO)c3ccc(Cl)c(F)c3)c(=O)c2)n1 (stereo unspecified) + CC(Nc1ccc2c(c1)OCCn1cc(N3C(=O)OCC3C(F)F)nc1-2)C(N)=O
# output 52%

# input Give T-47D spheroids with HUVEC/MSC, viability viability, T/C for CC(Cn1ccc(-c2ccc(C#N)c(Cl)c2)n1)NC(=O)c1cc(C(C)O)[nH]n1 (stereo unspecified) + Cc1nc(NC(=O)N2CCCC2C(N)=O)sc1-c1ccnc(C(C)(C)C(F)(F)F)c1
# output 84.4%

# input Give T-47D spheroids with HUVEC/MSC, viability viability, T/C for CC1(C)CCC(Nc2ncc(C(F)(F)F)c(-c3c[nH]c4c(P(C)(C)=O)c(C#N)ccc34)n2)CN1 (stereo unspecified) + COc1c(OCCCN2CCOCC2)ccc2c3n(c(=NC(=O)c4cnc(N)nc4)nc12)CCN3
# output 8.27%

# input Give T-47D spheroids with HUVEC/MSC, viability viability, T/C for Cn1ncc(Cl)c1-c1cc(C(=O)NC(CN)Cc2cccc(F)c2)sc1Cl (stereo unspecified) + CC(Nc1ncnc2nc[nH]c12)c1cc2cccc(Cl)c2c(=O)n1-c1ccccc1
# output 81.2%

# input Give T-47D spheroids with HUVEC/MSC, viability viability, T/C for CCCS(=O)(=O)Nc1ccc(F)c(C(=O)c2c[nH]c3ncc(-c4ccc(Cl)cc4)cc23)c1F + CC(Nc1ncnc2nc[nH]c12)c1cc2cccc(Cl)c2c(=O)n1-c1ccccc1
# output 89.2%

# input Give T-47D spheroids with HUVEC/MSC, viability viability, T/C for Cn1ncc(Cl)c1-c1cc(C(=O)NC(CN)Cc2cccc(F)c2)sc1Cl (stereo unspecified) + COc1c(OCCCN2CCOCC2)ccc2c3n(c(=NC(=O)c4cnc(N)nc4)nc12)CCN3
# output 6.72%

# input Give T-47D spheroids with HUVEC/MSC, viability viability, T/C for C[C@@H](NC(=O)c1ncnc(N)c1Cl)c1ncc(C(=O)Nc2cc(C(F)(F)F)c(Cl)cn2)s1 + CC(Nc1ccc2c(c1)OCCn1cc(N3C(=O)OCC3C(F)F)nc1-2)C(N)=O
# output 65%

# input Give T-47D spheroids with HUVEC/MSC, viability viability, T/C for CC1(C)CCC(Nc2ncc(C(F)(F)F)c(-c3c[nH]c4c(P(C)(C)=O)c(C#N)ccc34)n2)CN1 (stereo unspecified) + CC(Nc1ncnc2nc[nH]c12)c1cc2cccc(Cl)c2c(=O)n1-c1ccccc1
# output 69.6%

# input Give T-47D spheroids with HUVEC/MSC, viability viability, T/C for Cn1nccc1Nc1nccc(-c2ccn(C(CO)c3ccc(Cl)c(F)c3)c(=O)c2)n1 (stereo unspecified) + Cc1nc(NC(=O)N2CCCC2C(N)=O)sc1-c1ccnc(C(C)(C)C(F)(F)F)c1
# output 86.6%
